Would you kindly list melting point for each of these molecules?

Inquiry: Param item = CCn1nnc(-c2cccc(-c3ccnc4c(C(=O)c5cccs5)cnn34)c2)n1 ; retrieve measured melting point.
Reply text: 174 °C

Inquiry: Param item = CC(=O)Nn1c(=S)[nH]c2cc(C(=O)O)ccc21 ; retrieve measured melting point.
Reply text: 334 to 338 °C

Inquiry: Param item = Cc1oc(-c2ccccc2)nc1COc1ccc(CC2SC(=O)NC2=O)cn1 (stereo unspecified) ; retrieve measured melting point.
Reply text: 151 to 152 °C

Inquiry: Param item = CCC1(C)CC2(NC(=O)N(c3ccccc3)C2=O)C(C)C(C)(CC)N1 (stereo unspecified) ; retrieve measured melting point.
Reply text: 150 to 153 °C

Inquiry: Param item = CC(C)(C)SC1CN(C(=O)OCc2ccccc2)CC1NS(=O)(=O)c1ccc(Oc2ccccc2)cc1 (stereo unspecified) ; retrieve measured melting point.
Reply text: 125 to 126 °C

Inquiry: Param item = O=C(c1ccc(OC[C@H](O)CO)cc1)c1ccc([N+](=O)[O-])cc1 ; retrieve measured melting point.
Reply text: 104 to 105 °C

Inquiry: Param item = N#Cc1ccccc1NC(=O)c1snc(Cl)c1Cl ; retrieve measured melting point.
Reply text: 191 to 193 °C

Inquiry: Param item = CCSC1=C(C#N)C(c2ccccc2)(c2ccccc2)C(=O)N1CCCNC(=O)OC(C)(C)C ; retrieve measured melting point.
Reply text: 88 °C

Inquiry: Param item = CC(C)Cn1c(CNC(=O)OC(C)(C)C)c(-c2ccccc2F)c2cc(C(N)=O)ccc2c1=O ; retrieve measured melting point.
Reply text: 232 to 233 °C

Inquiry: Param item = CC1=Nc2cc(Cl)c(S)cc2S(=O)(=O)N1 ; retrieve measured melting point.
Reply text: 304 to 305 °C

Inquiry: Param item = C=C(C)c1ccc(C(F)(F)C(F)(F)c2ccccc2)cc1 ; retrieve measured melting point.
Reply text: 97 to 104 °C

====

Reported Metric: melting point

Inquiry: Param item = CCOC(=O)Cc1ccc(-c2nc(COc3ccc(COc4nn(-c5ccccc5)cc4/C=C\c4csc(C(C)C)n4)cc3OC)c(C)o2)cc1 ; retrieve measured melting point.
Reply text: 89 to 90 °C

Inquiry: Param item = CN1CC(C(=O)N(C)CCCc2ccc(Cl)c(Cl)c2)=C(O)C1=O ; retrieve measured melting point.
Reply text: 138 to 140 °C

Inquiry: Param item = COC(=O)CCCCSCCCCCCCCCCCOS(=O)(=O)c1ccc(C)cc1 ; retrieve measured melting point.
Reply text: 54 °C

Inquiry: Param item = Cn1c([N+](=O)[O-])cnc1C=NN1CCN(CCN2CCOCC2)C1=O ; retrieve measured melting point.
Reply text: 173 °C

Inquiry: Param item = C1=C(c2ccccc2)CCN(Cc2c[nH]c3ncccc23)C1 ; retrieve measured melting point.
Reply text: 177 to 179 °C

Inquiry: Param item = Cc1ccc([N+](=O)[O-])c(C)c1C1OCCO1 ; retrieve measured melting point.
Reply text: 69 to 71 °C

Inquiry: Param item = CCOC(=O)c1cc(Br)c(C(=O)OCC)cc1Cl ; retrieve measured melting point.
Reply text: 125 °C

Inquiry: Param item = CCCCCCCCCCCCCCCCCCOc1cccc(N(CC(=O)OCc2ccccc2)CC(=O)OCc2ccccc2)c1 ; retrieve measured melting point.
Reply text: 55 to 57 °C

Inquiry: Param item = O=C1CCC(C(=O)Nc2ccc(Cl)cc2C(=O)c2ccccc2Cl)O1 (stereo unspecified) ; retrieve measured melting point.
Reply text: 170 to 173 °C

Inquiry: Param item = CC1CCCCN1C(=O)C=Cc1ccc(F)cc1 (stereo unspecified) ; retrieve measured melting point.
Reply text: 114 to 116 °C

Inquiry: Param item = Cc1nc(-c2ccc(NCC(=O)O)cc2)no1 ; retrieve measured melting point.
Reply text: 178 to 181 °C

====

Would you kindly list melting point for each of these compounds?

Inquiry: Param item = CCOC(=O)c1ccc(N(C(=O)OC(C)(C)C)N(C)C(C)=O)cc1 ; retrieve measured melting point.
Reply text: 82 °C

Inquiry: Param item = C/C(=N\OCCOc1ccc(C(=O)O)cc1Cl)c1ccc(C(C)(C)C)cc1 ; retrieve measured melting point.
Reply text: 167 to 169 °C

Inquiry: Param item = CC(C)(C)C1OC1C(O)C1CCCCC1 (stereo not drawn) ; retrieve measured melting point.
Reply text: 38 to 48 °C

====

Reported Metric: melting point

Inquiry: Param item = CSc1cc(C)nc(SC)c1NC(=O)CSc1nc2ccccc2o1 ; retrieve measured melting point.
Reply text: 203 to 205 °C

Inquiry: Param item = CC(C)OC(=O)Nc1cccc(-c2ccnc3c(C(=O)c4ccsc4)cnn23)c1 ; retrieve measured melting point.
Reply text: 122 to 124 °C

Inquiry: Param item = COc1cc(COc2nn(-c3ccccc3)cc2C(N)=O)ccc1OCc1nc(-c2ccco2)oc1C ; retrieve measured melting point.
Reply text: 175 to 176 °C

Inquiry: Param item = CC(C)(C)c1ccc(CC[C@H](O)CCCC2CCCCC2)cc1NC(=O)CC1c2ccccc2Oc2ccccc21 ; retrieve measured melting point.
Reply text: 128 to 129 °C

====

Reported Metric: melting point

Inquiry: Param item = N#CCCN1CCC(c2ccccc2)(c2ccccc2)CC1 ; retrieve measured melting point.
Reply text: 95 to 96 °C

Inquiry: Param item = CC(=O)c1c(Br)[nH]c(-c2ccncc2)c1C ; retrieve measured melting point.
Reply text: 205 to 206 °C

Inquiry: Param item = NC(=O)c1cn(Cc2c(F)cccc2F)nn1 ; retrieve measured melting point.
Reply text: 237 to 240 °C

Inquiry: Param item = CCOc1ccc(C(=O)NCCc2ccc(S(=O)(=O)NC(=O)c3ccc(C(=O)NCC(=O)O)nc3)cc2)cc1OCC ; retrieve measured melting point.
Reply text: > 230 °C

Inquiry: Param item = CCOC(=O)Nc1c(C(=O)c2cccc(Cl)c2)[nH]c2cc(Cl)ccc12 ; retrieve measured melting point.
Reply text: 188 to 189 °C

Inquiry: Param item = COc1ccc(S(=O)(=O)C(c2cnc(C(=O)NCCO)cc2C)c2cc(F)ccc2F)cc1F (centres undefined) ; retrieve measured melting point.
Reply text: 137 to 138 °C

Inquiry: Param item = CCCc1c(OCC(O)COc2ccc(CC(=O)O)cc2F)ccc(C(C)=O)c1O (centres undefined) ; retrieve measured melting point.
Reply text: 137 to 138 °C

Inquiry: Param item = CCOC(=O)N1Cc2sc3ncn(CCO)c(=O)c3c2C1 ; retrieve measured melting point.
Reply text: 243 to 245 °C

Inquiry: Param item = COc1cccc(S(=O)c2cccc(N)c2C#N)c1 (centres undefined) ; retrieve measured melting point.
Reply text: 110 to 114 °C

Inquiry: Param item = COCCOc1ccc2c(c1)OCC21C(=O)N(Cc2ccccn2)c2ccccc21 (centres undefined) ; retrieve measured melting point.
Reply text: 94 to 95 °C

Inquiry: Param item = CCCCCON=C(C(=O)OCC)c1csc(N)n1 ; retrieve measured melting point.
Reply text: 86 to 88 °C

Inquiry: Param item = COC(=O)C1CC(=O)Nc2ccccc2C1 (centres undefined) ; retrieve measured melting point.
Reply text: 114 to 115 °C

Inquiry: Param item = C#CCNC(=O)C(C)(COc1ccc(OCC)cc1)NS(=O)(=O)Cc1ccccc1 (centres undefined) ; retrieve measured melting point.
Reply text: 155 to 156 °C

Inquiry: Param item = CC1SC(=O)NN=C1c1cccc(N)c1 (centres undefined) ; retrieve measured melting point.
Reply text: 167 to 170 °C

Inquiry: Param item = O=C(O)c1cccc2c(=O)c3cc(I)ccc3[nH]c12 ; retrieve measured melting point.
Reply text: 355 to 357 °C

Inquiry: Param item = C#CC(O)c1ccc(C(=O)OC)s1 (centres undefined) ; retrieve measured melting point.
Reply text: 67 °C

Inquiry: Param item = CNc1cc(Br)cc(Sc2ccc([N+](=O)[O-])cc2)c1 ; retrieve measured melting point.
Reply text: 96 to 98 °C

Inquiry: Param item = CC(=O)Nc1ccc(C(=O)O)c([N+](=O)[O-])c1 ; retrieve measured melting point.
Reply text: 217 to 220 °C

Inquiry: Param item = O=C(O)CCCCCOC(=O)n1c(-c2cscn2)nc2ccccc21 ; retrieve measured melting point.
Reply text: 79 to 81 °C

Inquiry: Param item = COCC1OC(n2cnc3c(NC4CCCC4)nc(Cl)nc32)C(O)C1O (centres undefined) ; retrieve measured melting point.
Reply text: 124 to 126 °C

Inquiry: Param item = Cn1nnnc1C(C=O)=C(c1ccccc1)c1ccccc1 ; retrieve measured melting point.
Reply text: 185 to 186 °C

Inquiry: Param item = CCC(NC(=O)OC)c1ccc(Cl)c2nc3n(c12)CCCN3c1ccc(Cl)cc1Cl (centres undefined) ; retrieve measured melting point.
Reply text: 201 to 203 °C

Inquiry: Param item = N#Cc1ccc(SCc2ccccc2)cc1 ; retrieve measured melting point.
Reply text: 85 °C

Inquiry: Param item = CCC(=O)N[C@@H](C)C(=O)N1CCC[C@H]1C(=O)O ; retrieve measured melting point.
Reply text: 169 to 171 °C

Inquiry: Param item = CS(=O)(=O)CCNC(=O)c1cccc(-c2ccc3c(c2)C(c2ccc(Cl)cc2Cl)CC3)c1 (centres undefined) ; retrieve measured melting point.
Reply text: 193 to 194 °C

Inquiry: Param item = Cc1ccc(-c2ncc3c(n2)CCCC3)nc1-c1ccc(C#N)cc1 ; retrieve measured melting point.
Reply text: 178 to 182 °C

Inquiry: Param item = CC(=O)Oc1cc(C(C)C)ccc1C1(OC(C)=O)C(=O)c2cccc(N)c2C1=O (centres undefined) ; retrieve measured melting point.
Reply text: 148 to 151 °C

Inquiry: Param item = O=C1CCC(C(=O)NCc2cccc3ccccc23)c2ccccc21 (centres undefined) ; retrieve measured melting point.
Reply text: 155 to 156 °C

Inquiry: Param item = O=C(CCCCl)Nc1ccccc1 ; retrieve measured melting point.
Reply text: 64 to 66 °C
